assayTarget: T1, Human CD3eg linker (human)
T1 construct: Single chain: epsilon and gamma subunits of human CD3 joined by a 29-mer linker, Flag-tag at the C-terminus; also called recombinant human CD3
T1 chain: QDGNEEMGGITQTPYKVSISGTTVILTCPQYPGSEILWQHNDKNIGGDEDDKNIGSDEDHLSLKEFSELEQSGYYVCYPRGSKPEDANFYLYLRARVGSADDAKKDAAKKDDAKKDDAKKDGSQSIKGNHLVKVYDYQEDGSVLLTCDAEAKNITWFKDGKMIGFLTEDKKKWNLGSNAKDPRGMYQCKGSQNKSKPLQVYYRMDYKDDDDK
experimentSummary: Biacore SPR, vs template H183/L072
The following binders are listed with their measured fold change of affinity values.
API: value field is a number in fold; no unit string.

Some entries whose results are on file:
1) H183/L072 VH Y58M (antibody, name in Kabat numbering, V domains shown) VH: QVQLVESGGGLVQPGRSLRLSCAASGFTFSNAWMHWVRQAPGKGLEWVAQIKDKGNAYAAMYAPSVKGRFTISRDDSKNSIYLQMNSLKTEDTAVYYCHYVHYASASTVLPAFGVDAWGQGTTVTVSS VL: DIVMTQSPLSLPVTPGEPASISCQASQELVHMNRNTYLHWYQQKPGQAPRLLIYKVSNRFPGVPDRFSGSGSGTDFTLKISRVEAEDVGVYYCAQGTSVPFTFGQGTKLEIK    0.4
2) H183/L072 VH I51N (antibody, name in Kabat numbering, V domains shown) VH: QVQLVESGGGLVQPGRSLRLSCAASGFTFSNAWMHWVRQAPGKGLEWVAQNKDKGNAYAAYYAPSVKGRFTISRDDSKNSIYLQMNSLKTEDTAVYYCHYVHYASASTVLPAFGVDAWGQGTTVTVSS VL: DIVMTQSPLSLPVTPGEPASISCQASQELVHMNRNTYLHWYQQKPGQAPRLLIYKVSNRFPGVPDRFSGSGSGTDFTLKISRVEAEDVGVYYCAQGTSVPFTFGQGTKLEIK    0

Okay, next one:
Value of fold change of affinity reported for the binder H183/L072 VH F27P (antibody, name in Kabat numbering, V domains shown) VH: QVQLVESGGGLVQPGRSLRLSCAASGPTFSNAWMHWVRQAPGKGLEWVAQIKDKGNAYAAYYAPSVKGRFTISRDDSKNSIYLQMNSLKTEDTAVYYCHYVHYASASTVLPAFGVDAWGQGTTVTVSS VL: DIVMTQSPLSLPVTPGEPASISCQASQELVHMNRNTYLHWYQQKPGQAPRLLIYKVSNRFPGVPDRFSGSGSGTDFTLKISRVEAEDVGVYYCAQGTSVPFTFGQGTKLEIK is 0
